Where these numbers come from: patent US20140094465A1

# assay_target: S-nitrosoglutathione reductase (GSNOR) (Homo sapiens, UniProt P11766)
# Construct: made in house; host or cells: E. coli
# Sequence (P11766 whole entry): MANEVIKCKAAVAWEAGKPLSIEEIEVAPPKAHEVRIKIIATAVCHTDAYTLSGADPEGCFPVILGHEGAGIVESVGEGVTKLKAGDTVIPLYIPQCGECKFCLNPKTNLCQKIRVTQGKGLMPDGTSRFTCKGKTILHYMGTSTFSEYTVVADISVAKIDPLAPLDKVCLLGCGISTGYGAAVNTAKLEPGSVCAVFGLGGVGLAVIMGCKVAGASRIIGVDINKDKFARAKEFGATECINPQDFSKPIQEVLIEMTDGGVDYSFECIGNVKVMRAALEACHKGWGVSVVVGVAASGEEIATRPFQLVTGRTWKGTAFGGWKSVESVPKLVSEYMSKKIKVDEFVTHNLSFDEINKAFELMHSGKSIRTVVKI
# method_description: GSNOR assay (inhibition of GSNOR activity, NADH absorbance at 340 nm)
# Assay type: biochemical
# details: GSNOR; read-out: IC50
pIC50: −log10 of the molar value.
parameter_measured: pIC50

{"columns": ["compound", "reported_measurement"],
 "data": [
  ["O=C(O)c1ccc(CC(=O)c2ccc(O)cc2F)c(F)c1", "> 7.00"]
]}

---

# assay_target: S-nitrosoglutathione reductase (GSNOR) (Homo sapiens, UniProt P11766)
# Construct: made in house; host or cells: E. coli
# method_description: GSNOR assay (inhibition of GSNOR activity, NADH absorbance at 340 nm)
# Assay type: biochemical
# details: Table 7; GSNOR inhibition, IC50 range class a/b/c; read-out: IC50
pIC50: −log10 of the molar value.
The entries below are paired with their reported pIC50.

{"columns": ["compound", "assay_target", "pIC50"],
 "data": [
  ["O=C(O)c1ccc(-c2cnc(-c3ccc(O)cc3)nc2)cc1", "S-nitrosoglutathione reductase (GSNOR) (Homo sapiens, UniProt P11766)", "5.00 to 6.00"],
  ["O=C(O)c1ccc(-c2ccc(-c3ccc(O)cc3)s2)cc1", "S-nitrosoglutathione reductase (GSNOR) (Homo sapiens, UniProt P11766)", "6.00 to 7.00"],
  ["O=C(O)c1cccc(-c2csc(-c3ccc(O)c(F)c3)n2)c1", "S-nitrosoglutathione reductase (GSNOR) (Homo sapiens, UniProt P11766)", "6.00 to 7.00"],
  ["O=C(O)c1ccc(-c2ccc(-c3ccc(O)c(F)c3)s2)cc1", "S-nitrosoglutathione reductase (GSNOR) (Homo sapiens, UniProt P11766)", "6.00 to 7.00"],
  ["O=C(O)c1ccc(-c2ccc(-c3ccc(O)cc3F)s2)cc1", "S-nitrosoglutathione reductase (GSNOR) (Homo sapiens, UniProt P11766)", "6.00 to 7.00"],
  ["Cn1c(-c2ccc(O)cc2)ccc1-c1ccc(C(=O)O)s1", "S-nitrosoglutathione reductase (GSNOR) (Homo sapiens, UniProt P11766)", "6.00 to 7.00"],
  ["CCOCCCn1c(-c2ccc(O)cc2)ccc1-c1ccc(C(=O)O)cc1", "S-nitrosoglutathione reductase (GSNOR) (Homo sapiens, UniProt P11766)", "> 7.00"],
  ["CC(C)n1c(-c2ccc(O)cc2)ccc1-c1ccc(C(=O)O)cc1", "S-nitrosoglutathione reductase (GSNOR) (Homo sapiens, UniProt P11766)", "> 7.00"],
  ["O=C(O)c1ccc(-c2ncc(-c3ccc(O)cc3)cn2)cc1", "S-nitrosoglutathione reductase (GSNOR) (Homo sapiens, UniProt P11766)", "5.00 to 6.00"],
  ["O=C(O)c1ccc(-c2cnc(-c3ccc(O)c(F)c3)s2)s1", "S-nitrosoglutathione reductase (GSNOR) (Homo sapiens, UniProt P11766)", "> 7.00"],
  ["O=C(O)c1ccc(-c2ccc(-c3ccc(O)cc3)s2)s1", "S-nitrosoglutathione reductase (GSNOR) (Homo sapiens, UniProt P11766)", "6.00 to 7.00"],
  ["CC(C)OCCCn1c(-c2ccc(O)cc2)ccc1-c1ccc(C(=O)O)cc1", "S-nitrosoglutathione reductase (GSNOR) (Homo sapiens, UniProt P11766)", "> 7.00"],
  ["O=C(O)c1ccc(-c2csc(-c3ccc(O)c(F)c3)n2)cc1", "S-nitrosoglutathione reductase (GSNOR) (Homo sapiens, UniProt P11766)", "6.00 to 7.00"],
  ["O=C(O)c1ccc(-c2nc(-c3ccc(O)cc3)cs2)cc1", "S-nitrosoglutathione reductase (GSNOR) (Homo sapiens, UniProt P11766)", "5.00 to 6.00"],
  ["O=C(O)c1ccc(-c2csc(-c3ccc(O)cc3)n2)s1", "S-nitrosoglutathione reductase (GSNOR) (Homo sapiens, UniProt P11766)", "> 7.00"],
  ["COCCn1c(-c2ccc(O)cc2)ccc1-c1ccc(C(=O)O)cc1", "S-nitrosoglutathione reductase (GSNOR) (Homo sapiens, UniProt P11766)", "6.00 to 7.00"],
  ["O=C(O)c1ccc(-c2ccc(-c3ccc(O)cc3)cc2)s1", "S-nitrosoglutathione reductase (GSNOR) (Homo sapiens, UniProt P11766)", "6.00 to 7.00"],
  ["O=C(O)c1ccc(-c2cnc(-c3ccc(O)cc3)s2)s1", "S-nitrosoglutathione reductase (GSNOR) (Homo sapiens, UniProt P11766)", "> 7.00"],
  ["CCOCCn1c(-c2ccc(O)cc2)ccc1-c1ccc(C(=O)O)cc1", "S-nitrosoglutathione reductase (GSNOR) (Homo sapiens, UniProt P11766)", "> 7.00"],
  ["O=C(O)c1ccc(-c2cc(-c3ccc(O)cc3)cs2)s1", "S-nitrosoglutathione reductase (GSNOR) (Homo sapiens, UniProt P11766)", "6.00 to 7.00"],
  ["O=C(O)c1ccc(-c2ccc(-c3ccc(O)c(F)c3)s2)s1", "S-nitrosoglutathione reductase (GSNOR) (Homo sapiens, UniProt P11766)", "> 7.00"]
]}
